Origin of values: PubChem BioAssay (NCATS)

Target: Cytochrome P450 3A4 (Homo sapiens)
Test: qHTS Assay for Inhibitors and Substrates of Cytochrome P450 3A4 (AID 884); note: potency is the fitted concentration of half-maximal effect; nearly all actives have a fitted effect of over 50% in size
Conditions: recombinant CYP3A4, Luciferin-PPXE luminescence; series mostly up to 57.1 µM
Records with an inconclusive call do not appear. Calls of active or inactive are those of the source. Calls come from the whole dose curve; as a rule, active = well fitted inhibition curve with a large enough effect; inconclusive = small, poorly fitted or top-dose-only effect; inactive = no such curve, though single readings can be large or run the other way.

{"columns": ["line notation", "Potency"],
 "data": [
  ["CCC1=C(OC(=O)N(CC)CC)N2C(=O)OC(=NCC3CC3)[C@]2(Cc2ccccc2)[C@H]2C1=CC[C@H]1C(=O)N(CC(=O)OC)C(=O)[C@H]12", "2 µM (active)"],
  ["C#CCCCO/N=C1/C[C@@H](O)[C@@H](O)[C@@H]2[C@@H]3C(=O)N([C@@H](C)c4ccccc4)C(=O)[C@H]3CC[C@H]12", "3.98 µM (active)"],
  ["C/C(CCN1CCCc2nc(C)c(C)cc21)=N\\O[C@@H](C)c1cn([C@H](CO)Cc2ccccc2)nn1", "2 µM (active)"],
  ["COc1ccc(/C=C/NC(=O)c2ccc(OC)cc2)cc1", "3.16 µM (active)"],
  ["CCC1=C2CC[C@H]3C(=O)N(CC(=O)OC)C(=O)[C@H]3[C@H]2[C@@]2(Cc3ccccc3)C(=NCCOC)OC(=O)N2C1=O", "12.6 µM (active)"],
  ["O=C1[C@H]2[C@H]3[C@H](O)[C@H](O)C/C(=N/OCc4ccccc4)[C@@H]3CC[C@@H]2C(=O)N1Cc1ccc2c(c1)OCO2", "2 µM (active)"],
  ["CC(=O)OC[C@@H]1O[C@H](CCO/N=C(\\C)CCC(=O)OC[C@@H]2O[C@H](C#Cc3ccccc3)C=C[C@@H]2Oc2ccc(C)cc2)C=C[C@@H]1OC(C)=O", "3.16 µM (active)"]
]}

====

Experiment: qHTS for Inhibitors of Plasmodium falciparum (7G8) proliferation (AID 504316); note: nearly all actives have a fitted effect of over 65% in size
Conditions: P. falciparum 7G8 in erythrocytes, SYBR Green DNA, 72 h; series mostly up to 6.7 µM
Excerpt: Plasmodium falciparum is a virulent malarial parasite that kills 1-2 million people worldwide each year. Malaria not only inflicts tremendous suffering and morbidity on the human population, but has dramatically influenced the course of civilization with profound sociological and economic implications (Shah, S. 2010). […] Because mature erythrocytes lack DNA, only Plasmodium-derived DNA is detected. […]
Records with an inconclusive call do not appear. Calls of active or inactive are those of the source. The call rests on the fitted dose curve; in most records, active means well fitted inhibition curve with a large enough effect; inconclusive means small, poorly fitted or top-dose-only effect; inactive means flat fitted curve, though single readings scatter.
Labels: active, inactive

{"columns": ["molecule", "qualitative label"],
 "data": [
  ["COC(=O)C1=C(C(=O)OC)[C@@H]2N(Cc3ccccc3)c3ccccc3[C@@]23C[C@@H](C(=O)OC)N(S(=O)(=O)c2c(C)noc2C)C3=N1", "active"],
  ["C=C(C(C)=O)C(O)c1cccs1 (stereo not drawn)", "inactive"],
  ["CCN1C(=O)N[C@@H](c2cccs2)C(C(C)=O)=C1C", "inactive"],
  ["COC(=O)[C@H]1[C@H](CCc2ccccc2)NC(=O)N(Cc2ccccc2)[C@@H]1C", "inactive"],
  ["COC(=O)CCCC1=CC2=C(c3ccccc3)C(=O)C(C)(OC(=O)C3CCCC3)C(=O)C2=CN1C1CCCC1 (stereo not drawn)", "inactive"],
  ["C=CCN1C=C2C(=O)C(C)(OC(=O)CC)C(=O)C=C2C=C1CCCC (stereo not drawn)", "inactive"],
  ["CC1(C)O[C@@H]2[C@@H](O1)C(c1ccccc1)(c1ccccc1)OP(=O)(O)OC2(c1ccccc1)c1ccccc1", "inactive"],
  ["COC(=O)CCCC1=CC2=C(c3ccccc3)C(=O)C(C)(OC(=O)C3CCCC3)C(=O)C2=CN1CCc1c[nH]c2ccccc12 (stereo not drawn)", "inactive"],
  ["COC(=O)c1ccccc1S(=O)(=O)N1CCc2nc(COc3ccccc3)c3c(c2C1)CO[C@@H](C)C3", "inactive"],
  ["COc1ccc(C=CC2=CC3(C)CC2(C)C(c2ccc(OC)cc2)CC3=O)cc1 (stereo not drawn)", "active"],
  ["COC(=O)C1=C(C(=O)OC)[C@@H]2Nc3ccccc3[C@@]23C[C@@H](C(=O)OC)N(S(=O)(=O)c2cccs2)C3=N1", "inactive"],
  ["COC(=O)C1=C(C)N(Cc2ccco2)C(=O)N[C@@H]1c1ccco1", "inactive"],
  ["C=CCN1c2ccccc2[C@]23C[C@@H](C(=O)OC)N(S(=O)(=O)c4ccc(Br)cc4)C2=NC(C(=O)OC)=C(C(=O)OC)[C@H]13", "inactive"],
  ["O=C1C=CC2(OCCCO2)C(Br)=C1CO", "inactive"],
  ["CCCCC1=CC2=CC(=O)C(C)(OC(=O)CC)C(=O)C2=CN1c1ccc(OC)cc1 (stereo not drawn)", "inactive"],
  ["C=CC1=C2C=C(C3CC3)N(Cc3ccco3)C=C2C(=O)C(C)(OC(=O)c2ccco2)C1=O (stereo not drawn)", "inactive"],
  ["CC#CCN1c2ccccc2[C@]23C[C@@H](C(=O)OC)N(C(=O)c4cc(C)oc4C)C2=NC(C(=O)OC)=C(C(=O)OC)[C@H]13", "active"],
  ["CCCCC1=CC2=CC(=O)C(C)(OC(=O)CC)C(=O)C2=CN1c1ccccc1 (stereo not drawn)", "inactive"]
]}

====

Target: Cytochrome P450 2C19 (Homo sapiens)
Test: qHTS Assay for Inhibitors and Substrates of Cytochrome P450 2C19 (AID 899); note: nearly all actives have a fitted effect of over 60% in size; note: potency is the fitted concentration of half-maximal effect
Details: recombinant CYP2C19, luciferin-H EGE luminescence; series mostly up to 11.4 µM
Description: NIH Molecular Libraries Screening Centers Network [MLSCN] NIH Chemical Genomics Center [NCGC] The P450 gene superfamily is involved in the metabolism and clearance of xenobiotics. […] The luciferin is then measured by luminescence after the addition of a luciferase detection reagent. […] Inhibitors and some substrates limit the production of luciferin, and decrease measured luminescence. […]
Results filed as inconclusive are left out. The source made the active and inactive calls. The call rests on the fitted dose curve; in most records, active means well fitted inhibition curve with a large enough effect; inconclusive means small, poorly fitted or top-dose-only effect; inactive means no such curve, though single readings can be large or run the other way.

{"columns": ["compound", "Potency"],
 "data": [
  ["COC(=O)NC(c1cccc(F)c1)C(C(C)=O)C(=O)OC (stereo not given)", "inactive"],
  ["CO[C@@H]1COC(=O)C/C=C\\[C@H](C)COC(=O)[C@H](Cc2ccccc2)NC(=O)C/C=C\\[C@H]1C", "2510 nM (active)"],
  ["COC(C(C)/C=C/CC(=O)OCCCc1ccccc1)C1CCCCC1 (stereo not given)", "inactive"],
  ["COc1ccc(O[C@H]2C=C[C@@H](c3ccccc3)O[C@@H]2CO/N=C(\\C)CCN2CCCCc3nc(C)c(C)cc32)cc1", "2510 nM (active)"],
  ["COC(=O)C/C=C/C(C)C(OCc1cccc(-c2ccccc2)c1)C1CCCCC1 (stereo not given)", "inactive"],
  ["CC(=O)OCC1OC(C#Cc2ccc(F)cc2F)C=CC1OC(C)=O (stereo not given)", "2510 nM (active)"],
  ["C=CCOC(=O)/C=C/NC(=O)/C=C/C=C/CCCCCCCC(C)O (stereo not given)", "inactive"],
  ["CCCc1cc2c(c(=O)o1)C(O)C1OC1C2=O (stereo not given)", "inactive"],
  ["CCC12C=C(/C=C/c3ccccc3)C(CC)(C1)C(c1ccccc1)CC2=O (stereo not given)", "5010 nM (active)"],
  ["CC(=O)OCC1OC(C#CCCc2ccccc2)C=CC1OC(C)=O (stereo not given)", "inactive"]
]}

====

Assay: qHTS assay for small molecule antagonists of retinoid X receptor alpha signaling (AID 588546);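 note: cells stimulated with 9-cis-retinoic acid as agonist; % is set by controls: 0 for no effect and ±100 for the full control effect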
Settings: HEK293T RXRa-UAS-bla, beta-lactamase ratio, antagonist mode; measured here: W530 green channel, cytotoxicity proxy
Inconclusive results are not listed.

{"columns": ["line notation", "max response [%]"],
 "data": [
  ["O=C(Cl)c1ccc(C(=O)Cl)cc1", -14.3],
  ["CCC(=O)OCCc1ccccc1", -6.4],
  ["CN(C)C(=O)Nc1ccccc1", -0.672],
  ["CCCCCCCCCCCCCCN", -5.44],
  ["C=Cc1ccccc1Br", 1.9],
  ["Cl[Si](Cl)(Cl)c1ccccc1", -7.94],
  ["CCCCCCCCCCCCCc1ccccc1", -13.4],
  ["CCCCCCCCCCCCCCCC", -21.5],
  ["CCCCOCCOCCO", 1.46],
  ["CCOc1ccc(NC(=O)OC(C)C)cc1OCC", -3.73],
  ["CCOCCOCCOC(C)=O", -12.8],
  ["CC(C)O.CC(C)O.CC(C)O.CC(C)O.[Ti]", -4.69],
  ["CC(C)C(=O)OC(=O)C(C)C", -12.1],
  ["C=C(C)C(=O)OCCC[Si](Cl)(Cl)Cl", -12.6],
  ["O=C=NCCCCCCN=C=O", -6.96],
  ["c1ccc(B(c2ccccc2)c2ccccc2)cc1", 3.4]
]}

====

Experiment: qHTS assay for cell viability of the p53RE-bla HCT-116 cell line (AID 743292); note: nearly all actives have a fitted effect of over 55% in size
Conditions: p53RE-bla HCT-116 viability, ATP luminescence, 16 h; series mostly up to 95 µM
Inconclusive results are not listed. Activity calls are given as the source filed them. Calls come from the whole dose curve; as a rule, active = well fitted cell-killing curve with a large enough effect; inconclusive = small, poorly fitted or top-dose-only effect, or effect the other way; inactive = flat fitted curve, though single readings scatter.
Labels: t (active), f (inactive)

{"columns": ["compound", "qualitative label"],
 "data": [
  ["O=C1CCC(C2CCCCC2)CC1", "f"],
  ["CC(C)(C)c1n[nH]c(=O)n(N)c1=O", "f"],
  ["O=[N+]([O-])c1ccc2c(c1)Cc1ccccc1-2", "f"],
  ["CC(C)(C)c1ccc(C(=O)O)cc1", "f"],
  ["CCCN(CCC)c1c([N+](=O)[O-])cc(C(F)(F)F)c(N)c1[N+](=O)[O-]", "t"],
  ["O=S(=O)(O)c1ccc(N=Nc2cc(S(=O)(=O)O)c3ccccc3c2O)c2ccccc12", "t"],
  ["CCC(C)(C)C1CCC(O)CC1 (configuration not stated)", "f"],
  ["CC(C)(C)[C@H](O)[C@H](Cc1ccc(Cl)cc1)n1cncn1", "f"],
  ["COC(=O)c1cccc(C)c1S(=O)(=O)NC(=O)Nc1nc(OCC(F)(F)F)nc(N(C)C)n1", "f"],
  ["CCNc1nc(NC(C)CC)nc(OC)n1 (configuration not stated)", "f"],
  ["O=[N+]([O-])c1ccc(O)cc1C(F)(F)F", "f"],
  ["CCOC(=O)[C@H](C)Oc1ccc(Oc2nc3ccc(Cl)cc3o2)cc1", "f"],
  ["CC[C@H](C)C1O[C@]2(C=C[C@@H]1C)C[C@@H]1C[C@@H](C/C=C(\\C)[C@@H](O[C@H]3C[C@H](OC)[C@@H](O[C@H]4C[C@H](OC)[C@H](NC(C)=O)[C@H](C)O4)[C@H](C)O3)[C@@H](C)/C=C/C=C3\\CO[C@@H]4[C@H](O)C(C)=C[C@@H](C(=O)O1)[C@]34O)O2 (some centres not stated)", "t"],
  ["Cc1ccc(S(=O)(=O)N=C=O)cc1", "f"],
  ["C=CC(=O)OCC[N+](C)(C)C", "f"],
  ["CC(C)Nc1nc(N)nc(Cl)n1", "f"],
  ["Cc1ccc(N=Nc2c(O)ccc3ccccc23)c([N+](=O)[O-])c1", "f"],
  ["CC1=CC(=O)CC(C)(C)C1", "f"],
  ["COC(OC)(C(=O)c1ccccc1)c1ccccc1", "f"],
  ["C=C(C)C(=O)OCC[N+](C)(C)C", "f"],
  ["C[C@]12CCC(=O)C=C1CC[C@@H]1[C@@H]2[C@@H](O)C[C@]2(C=O)[C@@H](C(=O)CO)CC[C@@H]12", "f"],
  ["CCCCCCCOC(=O)c1ccccc1C(=O)OCCCCCCC", "f"]
]}
